Just for reference, the supplement of paper PMC12636428 is where these values come from.

# System: Saccharomyces cerevisiae
# Method: transcriptional activation domain activity (GFP:mCherry ratio, weighted mean of sorted bins, harmonized to initial dataset scale) (arbitrary fluorescence ratio units); higher = stronger transcriptional activation
# Details: beta-estradiol 1 µM; induction time 4 h
transcriptional activation domain activity values for the sequences below.
Write the value as a bare number.

Use the examples below as a reference point.
* KAGEAKTATSKGAGDEEEGTQKKKGTSSRKKATGTMGNGEVEIGNAGSSEKKK | 36200
* VQFVLDLIVMVGVAGYNTVAQLYFPQLPHHKCSNSAATGSFGLFLICCYLVLF | 53700
* SIPPPPPPPAPPGPSRGGPPPPPPPPPPGGRGGAPPPPPPPPGGRAPPAPPAP | 22100
* IARSRNLPLDVVMYLGSDEENDMMVDTLLLLHDYISKVRSLILRVNFMTLSCA | 66700
* MALNLFQKEIFLILFLLFYYFAILLFCYFIILLFCYLIFLFFLFHLSLSSLIF | 26300
* KEKEVKAEVEEDGSEQEEGEGEEEEEGATRSSARKGKGRATAGGRKTRRGAAG | 19400
* MQCIFVHILLVFIINTFYLVHRLFSSSFLSSFTLFCFLYTHYSFLFFRLIHIS | 69500
* MATLDVFLRVYCFTLSFLLFLFLIIIFILAYSAFAVDFFFLFVYSSTIELCFI | 36200
* HVAMRAAVKANNSVMHRLLRNWGENRRRHFHGLLLVRLFRTTLVFSCADEVAA | 53300
* MRTLKLCSSCKHLGPEIYAFGWVCTNLSCQILFRHSGFHSLKGVTYSTSFLAQ | 57400

# input I have this sequence here, HVQIASSDVIKRVSSRVAWCLKSILTILLNVNQLEMSVLRSRVLRLIVFFLHY , and I need its recorded transcriptional activation domain activity.
# output 62300

# input Also DVKKVYFASRFPGNWLRDYSQAMDIAGLSKLSSDTLVLVVAVLGFMTFGFATE , if possible.
# output 38900

# input Also TVPVLVLVIYDWPRDRSNAYQVVLAISIWCWGVYQLLYIFLCGLYNPNFSTFR , if possible.
# output 59700

# input Also RGVEKLKVEVGCFFWILGEGMIADERLKKFMKDMAHARHVVSSPDVCPNIITY , if possible.
# output 40800

# input Also LYYTVIRLFHIYPCRDPLAANSTTFNKSLYLVWSFLCMLVYLAHISYLTLLPR , if possible.
# output 54100

# input Also MARCYRLVMCFPFSLCFEYSALILTCSFFSPFIPFRLWCHAVPCGSGVFLFLH , if possible.
# output 65700

# input Also MLLFSKLYYEAVGVGCLSYFDFQSLQVWVLDICASWYFVLAFNSYFVVSLFFG , if possible.
# output 36200

# input Also ICYVSLCVVISMCDLLVLWRCWVIWTALDHHLAYLVTFVPVIMLLSSFVMGTF , if possible.
# output 44100

# input Also PHGLLLPLLAHLFSLVLKISFLFCFEYKLAIFIFALVWQSLVVASLTCGFVFV , if possible.
# output 55700

====

# Tested on: Saccharomyces cerevisiae
# Method: transcriptional activation domain activity (GFP:mCherry ratio, weighted mean of sorted bins, harmonized to initial dataset scale) (arbitrary fluorescence ratio units); higher = stronger transcriptional activation
# Details: beta-estradiol 1 µM; induction time 4 h
Measure: transcriptional activation domain activity
Write the value as a bare number.

Use the examples below as a reference point.
- KIHLVNISQVVVFFVYRFLYGLIPLFEIATCAYYPLLVSLWHLDYLLFYAVMF: 48100
- MKTINILTTPPLHIFFSTPIVYSLFLLLNFFPIFFFFFFFFLYSLPFFFFIVA: 52100
- MRTHVLSMHSALLLLHCLRAVWLAPVSRPRQCLTSPAFCSSTRLAIILGGVRH: 77900

# input I have this sequence here, AVWGTGYGKYFVLVLCLFAGINITSCWVLIKYLGGLTWCTLFFKNRLLWINFV , and I need its recorded transcriptional activation domain activity.
# output 60400

# input Also TIPGLIRTSPRFGIMLLCLLLSIIFLFTDVIFMIVVSRRGGMNPFWRLALVFK , if possible.
# output 52600

# input Also MLLRRAVSLGVEGFFIFFYFLLMGLHCICLRGSSPWVDMFLFFVFFVSLVGFF , if possible.
# output 72200

# input Also EFILHTMPVVAIKDTHAWNGNTPVELGLLGFWNLIVVWLKLLIPWRFFRLWAL , if possible.
# output 63800

# input Also MTTWHKVFFFFRNLSFFCLFCLSCFFFLLLFLMKLETTNKVSILYLSLTLILF , if possible.
# output 43700

# input Also RPYLLLLHLLCSFFFFESISIILAIAFQLLLIRASSHMIIRMLLQVYCFLSMR , if possible.
# output 75900
